TARGET_ENTITY: P2X7 receptor (Homo sapiens, UniProt Q99572)
Construct: stably expressing the full length P2X7 receptor; expressed in transfected cells
Sequence (Q99572 whole entry): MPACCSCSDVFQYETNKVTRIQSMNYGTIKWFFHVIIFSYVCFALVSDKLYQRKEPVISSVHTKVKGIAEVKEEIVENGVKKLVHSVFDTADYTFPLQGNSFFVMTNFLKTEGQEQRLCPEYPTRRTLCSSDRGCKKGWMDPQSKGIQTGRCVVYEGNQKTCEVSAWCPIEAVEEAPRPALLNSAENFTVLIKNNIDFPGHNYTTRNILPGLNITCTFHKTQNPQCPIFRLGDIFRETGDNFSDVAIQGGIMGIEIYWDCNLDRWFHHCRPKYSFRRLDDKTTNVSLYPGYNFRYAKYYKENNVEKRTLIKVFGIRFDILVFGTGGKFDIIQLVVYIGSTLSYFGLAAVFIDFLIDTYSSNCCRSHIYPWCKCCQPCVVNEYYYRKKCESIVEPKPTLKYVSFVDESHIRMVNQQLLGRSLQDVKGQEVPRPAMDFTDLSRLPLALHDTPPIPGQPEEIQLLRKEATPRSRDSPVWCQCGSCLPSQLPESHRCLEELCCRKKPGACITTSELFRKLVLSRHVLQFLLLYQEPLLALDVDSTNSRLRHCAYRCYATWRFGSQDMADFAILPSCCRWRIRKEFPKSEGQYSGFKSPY
ASSAY_SUMMARY: Ca++ flux assay (FLIPR) in P2X7-HEK-293 cell line stably expressing the full length P2X7 receptor, Bz-ATP activation
Assay type: cell-based
MEASUREMENT_CONDITIONS: P2X7-HEK-293 cells; agonist Bz-ATP; fluorescence as total area over 90 seconds; read-out: P2X7 Ca Flux hu IC50
Give measured IC50 for each item. Keep answers brief.
Give the number; nM is assumed, so skip it.

Input Cc1c(-n2ccn3c(S(=O)(=O)Cc4ccccc4Br)nnc3c2=O)cccc1C(F)(F)F [Compound 131] . Output IC50: 17.7

Summary for this compound, Cc1c(Cl)cccc1-n1ccn2c(SCc3ccccc3C(C)(C)C)nnc2c1=O [Compound 19] : IC50 is 165

Lab note: Cc1c(Cl)cccc1-n1ccn2c(NCc3ccccc3-c3ccccc3)nnc2c1=O [Compound 166] gave IC50 of 585

Record summary for Cc1c(Cl)cccc1-n1ccn2c(S(=O)(=O)Cc3cccc(Cl)c3)nnc2c1=O [Compound 156] : reported IC50 = 119

// recorded IC50 for Cc1c(Cl)cccc1-n1ccn2c(SCc3ccc(Cl)c(Cl)c3)nnc2c1=O [Compound 103] : 1300

Cc1cccc(-n2ccn3c(SCc4ccccc4)nnc3c2=O)c1C [Compound 92] has a reported IC50 of 209

// sample O=c1c2nnc(SCc3cc(Cl)cc(Cl)c3)n2ccn1-c1cccc(C(F)(F)F)c1Cl [Compound 60] , its IC50 was 91.4

For reference, reported IC50 for Cc1c(-n2ccn3c(S(=O)(=O)Cc4cccs4)nnc3c2=O)cccc1C(F)(F)F [Compound 122] stands at 12.3
